The entries below come with measured minimal effective dose values attached.
Tested on: locomotor activity
Experiment: Decreased Locomotor Activity (LMA), sedative
Type: in vivo, mouse
Conditions: po, mouse; read-out: LMA mouse MED
Where a name gives a salt, the structure may show the parent alone.
measure_name: minimal effective dose (mg/kg)

1. CC12CCC(CN3CC[C@@H]4[C@@H](C3)c3ccccc3N4c3ccccc3)(CC1)CC2 (relative stereo) : 30
2. c1ccc(N2c3ccccc3[C@@H]3CN(C[C@H]4[C@@H]5CCCC[C@@H]54)CC[C@H]32)cc1 (relative stereo) [compound 9 of Table II, hydrochloride] : 0.1
3. Cl.c1ccc(N2c3ccccc3[C@@H]3CN(CC45CC6CC(CC(C6)C4)C5)CC[C@H]32)cc1 (racemic) [compound 4 of Table II] : 30

---

Tested on: locomotor activity
Experiment: Decreased Locomotor Activity (LMA), sedative
Format: in vivo, mouse
Settings: po, mouse; read-out: LMA mouse MED
The entries below come with measured log10 of minimal effective dose values attached.
measure_name: log10 of minimal effective dose (log10 of the value in mg/kg)

1. C1=CCC(CN2CC[C@@H]3[C@@H](C2)c2ccccc2N3c2ccccc2)CC1 (relative stereo) : 0.48
2. c1ccc(CCN2CC[C@@H]3[C@@H](C2)c2ccccc2N3c2ccccc2)cc1 (relative stereo) : 1.00
3. c1ccc(N2c3ccccc3[C@@H]3CN(CC4CCCCC4)CC[C@H]32)cc1 (relative stereo) : 0.48
4. CC(Cl)=CCN1CC[C@@H]2[C@@H](C1)c1ccccc1N2c1ccccc1 (relative stereo) : 0.00
5. CC12C=CC(CN3CC[C@@H]4[C@@H](C3)c3ccccc3N4c3ccccc3)(CC1)CC2 (relative stereo) : 1.48
6. c1ccc(N2c3ccccc3[C@@H]3CN(CC4CCCC4)CC[C@H]32)cc1 (racemic) : 1.00
7. Cl.c1ccc(N2c3ccccc3[C@@H]3CN(CC4C5CC6CC(C5)CC4C6)CC[C@H]32)cc1 (mixture of isomers) : 0.30

Ref: patent US3991199A
